Biological target: Relaxin receptor 1 (Homo sapiens, UniProt Q9HBX9)
Sequence (Q9HBX9 whole entry): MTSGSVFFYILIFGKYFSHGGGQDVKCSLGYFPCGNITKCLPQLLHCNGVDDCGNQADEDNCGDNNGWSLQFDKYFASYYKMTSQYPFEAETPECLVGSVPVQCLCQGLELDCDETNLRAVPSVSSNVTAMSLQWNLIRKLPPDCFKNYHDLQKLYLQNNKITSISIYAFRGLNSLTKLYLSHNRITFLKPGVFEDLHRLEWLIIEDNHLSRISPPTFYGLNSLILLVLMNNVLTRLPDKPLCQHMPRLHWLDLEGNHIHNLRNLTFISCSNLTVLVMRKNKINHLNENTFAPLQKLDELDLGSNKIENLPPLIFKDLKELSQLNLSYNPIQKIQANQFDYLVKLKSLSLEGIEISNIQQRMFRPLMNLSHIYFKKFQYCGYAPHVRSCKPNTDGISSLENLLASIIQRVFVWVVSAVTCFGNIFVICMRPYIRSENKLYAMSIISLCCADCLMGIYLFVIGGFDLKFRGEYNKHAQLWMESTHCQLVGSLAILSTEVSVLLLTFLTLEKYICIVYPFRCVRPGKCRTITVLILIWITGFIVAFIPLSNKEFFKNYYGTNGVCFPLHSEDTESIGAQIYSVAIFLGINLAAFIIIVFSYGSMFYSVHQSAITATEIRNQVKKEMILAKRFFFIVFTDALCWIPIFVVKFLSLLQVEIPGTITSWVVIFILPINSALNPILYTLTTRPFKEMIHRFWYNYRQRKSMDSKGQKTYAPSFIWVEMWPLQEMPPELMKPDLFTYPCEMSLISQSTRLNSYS
MEASURED QUANTITY: EC50 (µM)
One number for each entry, in µM.

Example cases with answers are listed next.
COc1cc(C(F)(F)F)c(O[C@H]2CC[C@@](C)(C(=O)O)CC2)cc1C(=O)N[C@@H]1[C@H]2CC[C@H](C2)[C@@H]1C(=O)NCC1(C)CCC1; 0.0316
COCc1cc(OC)c(C(=O)N[C@@H]2[C@H]3CC[C@H](C3)[C@@H]2C(=O)NCC2(C)CCC2)cc1O[C@H]1CC[C@@](C)(C(=O)O)CC1; 1
COc1ccc(O[C@H]2CC[C@@](C)(C(=O)O)CC2)cc1C(=O)N[C@@H]1[C@H]2CC[C@H](C2)[C@@H]1C(=O)NCC1(C)CCC1; 0.1

Could I get EC50 for every one of these entries?
1. CC1(CNC(=O)[C@H]2[C@@H]3CC[C@@H](C3)[C@H]2NC(=O)c2cc(O[C@H]3CC[C@@](C)(C(=O)O)CC3)ccn2)CCC1
2. CC1(CNC(=O)[C@H]2[C@@H]3CC[C@@H](C3)[C@H]2NC(=O)c2cc(O[C@H]3CC[C@@](C)(C(=O)O)CC3)c(C#N)cn2)CCC1
3. COc1cc(F)c(O[C@H]2CC[C@@H](C(=O)O)CC2)cc1C(=O)N[C@@H]1[C@H]2CC[C@H](C2)[C@@H]1C(=O)NCC(C)(C)C
4. COc1c(C#N)cc(O[C@H]2CC[C@@](C)(C(=O)O)CC2)cc1C(=O)N[C@@H]1[C@H]2CC[C@H](C2)[C@@H]1C(=O)NCC1(C)CCC1
5. COc1cc(F)c(O[C@H]2CC[C@@](CC#N)(C(=O)O)CC2)cc1C(=O)N[C@@H]1[C@H]2CC[C@H](C2)[C@@H]1C(=O)NCC1(C)CCC1

Reply |
1.58
0.1
1
0.0794
0.0794

Value sought for every listed compound: EC50.
1. CC1(CNC(=O)[C@H]2[C@@H]3CC[C@@H](C3)[C@H]2NC(=O)c2ccc(F)c(O[C@H]3CC[C@@](C)(C(=O)O)CC3)c2)CCC1
2. Cc1cc(F)c(O[C@H]2CC[C@@](C)(C(=O)O)CC2)cc1C(=O)N[C@@H]1[C@H]2CC[C@H](C2)[C@@H]1C(=O)NCC1(C)CCC1
3. CC1(CNC(=O)[C@H]2[C@@H]3CC[C@@H](C3)[C@H]2N2CCc3cc(F)c(O[C@H]4CC[C@@](C)(C(=O)O)CC4)cc3C2=O)CCC1
4. CC1(CNC(=O)[C@H]2C3CCC(C3)[C@H]2NC(=O)c2cc(O[C@H]3CC[C@@](C)(C(=O)O)CC3)c(C#N)cc2F)CCC1 (stereo partly drawn)
5. COc1cc(F)c(C[C@H]2CC[C@@](C)(C(=O)O)CC2)cc1C(=O)N[C@@H]1[C@H]2CC[C@H](C2)[C@@H]1C(=O)NCC1(C)CCC1

Reply |
0.316
2
1.58
0.0158
0.158

* * *

Assay: Metabolic stability in human liver microsomes assessed as unbound intrinsic clearance at 1 uM measured upto 30 mins by LC-MS/MS analysis
Type: ADME, Microsome
Details: 0.5 h
MEASURED QUANTITY: CL free (µL/min/mg)
Answers are plain numbers, in µL/min/mg.

Check out these entries, answers already filled in.
COc1cc(F)c(O[C@H]2CC[C@@H](C(=O)O)CC2)cc1C(=O)N[C@@H]1[C@H]2CC[C@H](C2)[C@@H]1C(=O)NCC(C)(C)C; 8.5
COc1cc(F)c(O[C@H]2CC[C@@](C)(C(=O)O)CC2)cc1C(=O)N[C@@H]1[C@H]2CC[C@H](C2)[C@@H]1C(=O)N[C@H](C)C(C)(C)C; 50
COc1cc(F)c(O[C@H]2CC[C@@](C)(C(=O)O)CC2)cc1C(=O)N[C@@H]1[C@H]2CC[C@H](C2)[C@@H]1C(=O)NCC(C)(C)C; 20
COc1cc(C#N)c(O[C@H]2CC[C@@](C)(C(=O)O)CC2)cc1C(=O)N[C@@H]1[C@H]2CC[C@H](C2)[C@@H]1C(=O)NCC1(C)CCC1; 30

Lab note: each compound below needs its CL free filled in.
1. CC1(CNC(=O)[C@H]2[C@@H]3CC[C@@H](C3)[C@H]2NC(=O)c2cc(O[C@H]3CC[C@@](C)(C(=O)O)CC3)cc3c2OCC3)CCC1
2. COc1cc(C(F)(F)F)c(O[C@H]2CC[C@@](C)(C(=O)O)CC2)cc1C(=O)N[C@@H]1[C@H]2CC[C@H](C2)[C@@H]1C(=O)NCC1(C)CCC1

Reply |
30
44

* * *

Test: Octanol/water partition coefficient, logD of the compound at pH 7.4 by shake flask method
Assay type: physicochemical
Would you mind telling me the reported logD of each entry?

Guide cases for logD, answers given:
Cc1cc(F)c(O[C@H]2CC[C@@](C)(C(=O)O)CC2)cc1C(=O)N[C@@H]1[C@H]2CC[C@H](C2)[C@@H]1C(=O)NCC1(C)CCC1; 2.83
COc1cc(Cl)c(O[C@H]2CC[C@@](C)(C(=O)O)CC2)cc1C(=O)N[C@@H]1[C@H]2CC[C@H](C2)[C@@H]1C(=O)NCC1(C)CCC1; 3.5
COCc1cc(OC)c(C(=O)N[C@@H]2[C@H]3CC[C@H](C3)[C@@H]2C(=O)NCC2(C)CCC2)cc1O[C@H]1CC[C@@](C)(C(=O)O)CC1; 3
COc1cc(F)c(O[C@H]2CC[C@@](C)(C(=O)O)CC2)cc1C(=O)N[C@@H]1[C@H]2CC[C@H](C2)[C@@H]1C(=O)NCC(C)(C)C; 3
COc1ccc(O[C@H]2CC[C@@](C)(C(=O)O)CC2)cc1C(=O)N[C@@H]1[C@H]2CC[C@H](C2)[C@@H]1C(=O)NCC1(C)CCC1; 2.9
CC1(CNC(=O)[C@H]2[C@@H]3CC[C@@H](C3)[C@H]2NC(=O)c2cc(O[C@H]3CC[C@@](C)(C(=O)O)CC3)ccn2)CCC1; 2.5

Lab note: each compound below needs its logD filled in.
1. COc1cc(F)c(O[C@H]2CC[C@@](C)(C(=O)O)CC2)cc1C(=O)N[C@@H]1[C@H]2CC[C@H](C2)[C@@H]1C(=O)NCC(C)C
2. CC1(CNC(=O)[C@H]2[C@@H]3CC[C@@H](C3)[C@H]2NC(=O)c2cc(O[C@H]3CC[C@@](C)(C(=O)O)CC3)c(C#N)cn2)CCC1
3. CC1(CNC(=O)[C@H]2[C@@H]3CC[C@@H](C3)[C@H]2NC(=O)c2cc(O[C@H]3CC[C@@](C)(C(=O)O)CC3)c(F)cc2OCF)CCC1
4. COc1c(F)cc(O[C@H]2CC[C@@](C)(C(=O)O)CC2)cc1C(=O)N[C@@H]1[C@H]2CC[C@H](C2)[C@@H]1C(=O)NCC1(C)CCC1
5. COc1cc(F)c(O[C@H]2CC[C@@](CO)(C(=O)O)CC2)cc1C(=O)N[C@@H]1[C@H]2CC[C@H](C2)[C@@H]1C(=O)NCC1(C)CCC1
6. COc1cc(C#N)c(O[C@H]2CC[C@@](C)(C(=O)O)CC2)cc1C(=O)N[C@@H]1[C@H]2CC[C@H](C2)[C@@H]1C(=O)NCC(C)(C)C
7. CC1(CNC(=O)[C@H]2[C@@H]3CC[C@@H](C3)[C@H]2NC(=O)c2cc(O[C@H]3CC[C@@](C)(C(=O)O)CC3)c(F)cc2O)CCC1
8. COc1cc(C#N)c(O[C@H]2CC[C@@](C)(C(=O)O)CC2)cc1C(=O)N[C@@H]1[C@H]2CC[C@H](C2)[C@@H]1C(=O)NCC1(C)CCC1

Reply |
1: 2.6; 2: 2.4; 3: 3.3; 4: 3.3; 5: 1.5; 6: 2.3; 7: 3.3; 8: 2.85

* * *

Exercise: for every item that follows, state its recorded logD.
Experiment: Octanol/water partition coefficient, logD of the compound at pH 7.4 by shake flask method
Assay type: physicochemical
Answers are plain numbers.

Would you be so kind as to report logD for each listed record?
1. CC1(CNC(=O)[C@H]2[C@@H]3CC[C@@H](C3)[C@H]2NC(=O)c2cc(O[C@H]3CC[C@@](C)(C(=O)O)CC3)cc3c2OCC3)CCC1
2. COc1cc(C2CC2)c(O[C@H]2CC[C@@](C)(C(=O)O)CC2)cc1C(=O)N[C@@H]1[C@H]2CC[C@H](C2)[C@@H]1C(=O)NCC1(C)CCC1
3. COc1cc(F)c(O[C@H]2CC[C@@H](C(=O)O)CC2)cc1C(=O)N[C@@H]1[C@H]2CC[C@H](C2)[C@@H]1C(=O)NCC(C)(C)C
4. COc1cc(F)c(O[C@H]2CC[C@@](C)(C(=O)O)CC2)cc1C(=O)N[C@@H]1[C@H]2CC[C@H](C2)[C@@H]1C(=O)NCC(C)(C)C(F)(F)F
5. COc1cc(Cl)c(O[C@H]2CC[C@@](C)(C(=O)O)CC2)cc1C(=O)N[C@@H]1[C@@H]2CC[C@@H](C2)[C@@H]1C(=O)NCC1(C)CCC1

Reply |
2.9
3.7
2.3
3.19
3.6
